Assignment: determine reported IC50 for the given molecules.
# System: HER3ss-Gluc
# assay.summary: HER3ss assay
# Assay type: cell-based
# conditions: HEK-293T T-rex cells, transient transfection, doxycycline, 24 h; read-out: HER3 ss IC50
Numbered stars: 1 amine (or outer) side, 2 acyl side, 3 side chain; on linkers, the order of the positions; unused ones are H or OH. Square brackets hold non-standard residues; d marks the D form. Peptide text beside a SMILES is read from it. NMeAla(5-Cl-benzothien-3-yl) = CN[C@@H](Cc1csc2ccc(Cl)cc12)C(=O)O; Ala(1-cyclohexenyl) = N[C@@H](CC1=CCCCC1)C(=O)O; Butanoyl(2R-oxy,4-CN) = N#CCC[C@@H](O)C(=O)O; X12 = O=C([C@H](CC1=CCCC1)N[*:1])[*:2]; NMeL = CN[C@@H](CC(C)C)C(=O)O; NMeA = CN[C@@H](C)C(=O)O
Quick note: give the figure in nM, leave out the unit.

Value lookup for IC50; key = CC(C)C[C@@H]1NC(=O)[C@H](Cc2csc3ccc(Cl)cc23)N(C)C(=O)[C@H](CC2=CCCCC2)NC(=O)[C@H](CC(C)C)N(C)C(=O)[C@H](CC2=CCCC2)NC(=O)[C@@H](CCC#N)OC(=O)[C@H](C)N(C)C1=O [C-85] (cyclo(L[NMeA][Butanoyl(2R-oxy,4-CN)][X12][NMeL][Ala(1-cyclohexenyl)][NMeAla(5-Cl-benzothien-3-yl)]))
7

Value lookup for IC50; key = COc1cc(Cn2cc(C[C@H]3C(=O)N[C@@H](CC(C)C)C(=O)N(C)[C@@H](C)C(=O)O[C@H](CCC#N)C(=O)N[C@@H](CC(C)C)C(=O)N(C)[C@@H](CC(C)C)C(=O)N[C@@H](CC(C)C)C(=O)N3C)c3ccccc32)ccc1F [C-27] (HELM PEPTIDE1{L.[meA].[N#CCC[C@@H](O[*:1])C(=O)[*:2]].L.[meL].L.[COc1cc(Cn2cc(C[C@@H](C(=O)[*:2])N(C)[*:1])c3ccccc32)ccc1F]}$PEPTIDE1,PEPTIDE1,1:R1-7:R2$$$V2.0)
101

Attribution: patent US11339193B2
